Source: the supplement of paper PMC10567573

B1: CCDC6 (parent)
chain: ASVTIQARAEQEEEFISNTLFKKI

variants of: B1; assay: protein stability index of a GFP-peptide fusion (GPS, HEK-293T) (PSI 1-6); higher = more stable; settings: c terminus: a fixed tail appended;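 note: lentivirally expressed fusions sorted by FACS into six bins by GFP to DsRed ratio, PSI derived from sequencing read proportions per bin multiplied by bin number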
assayMetric: protein stability index

>>> value("Q6K")
3.98
>>> value("A9Q")
4.09
>>> value("L20H")
4
>>> value("T19P")
4
>>> value("A7Q")
3.93
